Reported melting point values follow for various molecules

Use the examples below as a reference point.
molecule="CN1c2ccccc2C(=O)N2CCc3c(n(CCCc4ccccc4)c4ccccc34)C21 (stereo not drawn)" readout_type="melting point" observed_value="158 to 160 °C"
molecule="CC(C)CCn1c2c(c3ccccc31)CCN1C(=O)c3ccccc3N(C)C21 (stereo not drawn)" readout_type="melting point" observed_value="108 to 110 °C"
molecule="CCCOC(=O)Cn1c2c(c3ccccc31)CCN1C(=O)c3ccccc3N(C)C21 (stereo not drawn)" readout_type="melting point" observed_value="168 to 170 °C"

Quick note, melting point for CN1c2ccccc2C(=O)N2CCc3c(n(CCCCl)c4ccccc34)C21 (stereo not drawn) landed at 118 to 120 °C

Recorded result, C=CCn1c2c(c3ccccc31)CCN1C(=O)c3ccccc3N(C)C21 (stereo not drawn) , melting point: 163 to 165 °C

Reported melting point ( CN1c2ccccc2C(=O)N2CCc3c(n(CC4CO4)c4ccccc34)C21 (stereo not drawn) ) = 189 to 191 °C

meta.source: paper PMC6270516
